# reported MIC; entries follow
system: Streptococcus pyogenes; test: Antibacterial activity against Mef-mediated macrolide efflux resistant Streptococcus pyogenes by agar microdilution method; type: functional
Please make sure the unit comes right after the number.

In: What does the record list as MIC for C=CCO[C@]1(C)C[C@@H](C)NC(=O)[C@H](C)[C@@H](O)[C@](C)(O)[C@@H](CC)OC(=O)[C@H](C)[C@@H](OC(=O)CCN2CCN(c3cc4c(cc3F)c(=O)c(C(=O)O)cn4C3CC3)CC2)[C@H](C)[C@H]1O[C@@H]1O[C@H](C)C[C@H](N(C)C)[C@H]1O ?
Out: 0.5 µg/mL

In: Then what about the molecule CC[C@H]1OC(=O)[C@H](C)[C@@H](OC(=O)CCNCCNc2cc3c(=O)c(C(=O)O)cn(C4CC4)c3cc2Cl)[C@H](C)[C@@H](O[C@@H]2O[C@H](C)C[C@H](N(C)C)[C@H]2O)[C@](C)(OC/C=C/c2cnc3ccccc3c2)C[C@@H](C)NC(=O)[C@H](C)[C@@H](O)[C@]1(C)O ?
Out: 0.25 µg/mL

In: // same read-out, input: C=CCO[C@]1(C)C[C@@H](C)NC(=O)[C@H](C)[C@@H](O)[C@](C)(O)[C@@H](CC)OC(=O)[C@H](C)[C@@H](OC(=O)CCNC(C)C(=O)Nc2ccc([N+](=O)[O-])cc2)[C@H](C)[C@H]1O[C@@H]1O[C@H](C)C[C@H](N(C)C)[C@H]1O (some centres undefined)
Out: 0.5 µg/mL

In: And the next one, C=CCO[C@]1(C)C[C@@H](C)NC(=O)[C@H](C)[C@@H](O)[C@](C)(O)[C@@H](CC)OC(=O)[C@H](C)[C@@H](OC(=O)CCNCCNc2cc3c(cc2F)c(=O)c(C(=O)O)cn3C2CC2)[C@H](C)[C@H]1O[C@@H]1O[C@H](C)C[C@H](N(C)C)[C@H]1O ?
Out: 0.5 µg/mL

###

system: Staphylococcus aureus; experiment: Antibacterial activity against erythromycin susceptible Staphylococcus aureus by agar microdilution method; type: functional
// values below are reported MIC
State just the number; it will be interpreted in µg/mL.

Worked cases, MIC given:
* C=CCO[C@]1(C)C[C@@H](C)NC(=O)[C@H](C)[C@@H](O)[C@](C)(O)[C@@H](CC)OC(=O)[C@H](C)[C@@H](OC(=O)CCNCCCc2ccccc2)[C@H](C)[C@H]1O[C@@H]1O[C@H](C)C[C@H](N(C)C)[C@H]1O | 2
* C=CCO[C@]1(C)C[C@@H](C)NC(=O)[C@H](C)[C@@H](O)[C@](C)(O)[C@@H](CC)OC(=O)[C@H](C)[C@@H](OC(=O)CCN(C)CCc2ccccc2)[C@H](C)[C@H]1O[C@@H]1O[C@H](C)C[C@H](N(C)C)[C@H]1O | 4

In: Item under review: CC[C@H]1OC(=O)[C@H](C)[C@@H](O[C@H]2C[C@@](C)(OC)[C@@H](O)[C@H](C)O2)[C@H](C)[C@@H](O[C@@H]2O[C@H](C)C[C@H](N(C)C)[C@H]2O)[C@](C)(O)C[C@@H](C)CN(C)[C@H](C)[C@@H](O)[C@]1(C)O . Reported MIC?
Out: 1

###

test system: Streptococcus pyogenes; experiment: Antibacterial activity against constitutively macrolide/lincosamide/streptogramin B-resistant Streptococcus pyogenes by agar microdilution method; assay type: functional
Each entry below carries its reported MIC.
Give just the number in µg/mL; leave the unit off.

• C=CCO[C@]1(C)C[C@@H](C)NC(=O)[C@H](C)[C@@H](O)[C@](C)(O)[C@@H](CC)OC(=O)[C@H](C)[C@@H](OC(=O)CCN2CCN(c3cc4c(cc3F)c(=O)c(C(=O)OC)cn4C3CC3)CC2)[C@H](C)[C@H]1O[C@@H]1O[C@H](C)C[C@H](N(C)C)[C@H]1O = 32
• C=CCO[C@]1(C)C[C@@H](C)NC(=O)[C@H](C)[C@@H](O)[C@](C)(O)[C@@H](CC)OC(=O)[C@H](C)[C@@H](OC(=O)CCNC(C)C(=O)Nc2cnc3ccccc3c2)[C@H](C)[C@H]1O[C@@H]1O[C@H](C)C[C@H](N(C)C)[C@H]1O (some centres not stated) = 8
• CC[C@H]1OC(=O)[C@H](C)[C@@H](OC(=O)CCNCCNc2cc3c(=O)c(C(=O)O)cn(C4CC4)c3cc2Cl)[C@H](C)[C@@H](O[C@@H]2O[C@H](C)C[C@H](N(C)C)[C@H]2O)[C@](C)(OC/C=C/c2cnc3ccccc3c2)C[C@@H](C)NC(=O)[C@H](C)[C@@H](O)[C@]1(C)O = 4
• CC[C@H]1OC(=O)[C@H](C)C(=O)[C@H](C)[C@@H](O[C@@H]2O[C@H](C)C[C@H](N(C)C)[C@H]2O)[C@](C)(OC)C[C@@H](C)C(=O)[C@H](C)[C@H]2N(CCCCn3cnc(-c4cccnc4)c3)C(=O)O[C@]12C [TELITHROMYCIN] = 4
• C=CCO[C@]1(C)C[C@@H](C)NC(=O)[C@H](C)[C@@H](O)[C@](C)(O)[C@@H](CC)OC(=O)[C@H](C)[C@@H](OC(=O)CCNCCNc2cc3c(=O)c(C(=O)O)cn(C4CC4)c3cc2Cl)[C@H](C)[C@H]1O[C@@H]1O[C@H](C)C[C@H](N(C)C)[C@H]1O = 4
• C=CCO[C@]1(C)C[C@@H](C)NC(=O)[C@H](C)[C@@H](O)[C@](C)(O)[C@@H](CC)OC(=O)[C@H](C)[C@@H](OC(=O)CCN2CCN(c3ccc4c(c3)c(=O)c(C(=O)O)cn4C3CC3)CC2)[C@H](C)[C@H]1O[C@@H]1O[C@H](C)C[C@H](N(C)C)[C@H]1O = 32
• C=CCO[C@]1(C)C[C@@H](C)NC(=O)[C@H](C)[C@@H](O)[C@](C)(O)[C@@H](CC)OC(=O)[C@H](C)[C@@H](OC(=O)CCNCCNc2cc3c(cc2F)c(=O)c(C(=O)O)cn3C2CC2)[C@H](C)[C@H]1O[C@@H]1O[C@H](C)C[C@H](N(C)C)[C@H]1O = 16
• O=C(O)c1cn(C2CC2)c2cc(N3CCNCC3)c(F)cc2c1=O [CIPROFLOXACIN] = 0.5

In: Form: Entry = C=CCO[C@]1(C)C[C@@H](C)NC(=O)[C@H](C)[C@@H](O)[C@](C)(O)[C@@H](CC)OC(=O)[C@H](C)[C@@H](OC(=O)CCN2CCN(c3cc4c(=O)c(C(=O)O)cn(C5CC5)c4cc3Cl)CC2)[C@H](C)[C@H]1O[C@@H]1O[C@H](C)C[C@H](N(C)C)[C@H]1O | System = Streptococcus pyogenes | MIC = ____
Out: 8

In: Now this one: CC[C@H]1OC(=O)[C@H](C)[C@@H](OC(=O)CCNCCNc2cc3c(=O)c(C(=O)O)cn(C4CC4)c3cc2Cl)[C@H](C)[C@@H](O[C@@H]2O[C@H](C)C[C@H](N(C)C)[C@H]2O)[C@](C)(OC/C=C/c2cccc3ncccc23)C[C@@H](C)NC(=O)[C@H](C)[C@@H](O)[C@]1(C)O
Out: 32
